Reference for the values: paper PMC10786891

Reported pKd by item:
# testedOn: T1, EsCas13d, nuclease-dead (Eubacterium siraeum, UniProt B0MS50, R295A;H300A;R849A;H854A)
# T1 sequence: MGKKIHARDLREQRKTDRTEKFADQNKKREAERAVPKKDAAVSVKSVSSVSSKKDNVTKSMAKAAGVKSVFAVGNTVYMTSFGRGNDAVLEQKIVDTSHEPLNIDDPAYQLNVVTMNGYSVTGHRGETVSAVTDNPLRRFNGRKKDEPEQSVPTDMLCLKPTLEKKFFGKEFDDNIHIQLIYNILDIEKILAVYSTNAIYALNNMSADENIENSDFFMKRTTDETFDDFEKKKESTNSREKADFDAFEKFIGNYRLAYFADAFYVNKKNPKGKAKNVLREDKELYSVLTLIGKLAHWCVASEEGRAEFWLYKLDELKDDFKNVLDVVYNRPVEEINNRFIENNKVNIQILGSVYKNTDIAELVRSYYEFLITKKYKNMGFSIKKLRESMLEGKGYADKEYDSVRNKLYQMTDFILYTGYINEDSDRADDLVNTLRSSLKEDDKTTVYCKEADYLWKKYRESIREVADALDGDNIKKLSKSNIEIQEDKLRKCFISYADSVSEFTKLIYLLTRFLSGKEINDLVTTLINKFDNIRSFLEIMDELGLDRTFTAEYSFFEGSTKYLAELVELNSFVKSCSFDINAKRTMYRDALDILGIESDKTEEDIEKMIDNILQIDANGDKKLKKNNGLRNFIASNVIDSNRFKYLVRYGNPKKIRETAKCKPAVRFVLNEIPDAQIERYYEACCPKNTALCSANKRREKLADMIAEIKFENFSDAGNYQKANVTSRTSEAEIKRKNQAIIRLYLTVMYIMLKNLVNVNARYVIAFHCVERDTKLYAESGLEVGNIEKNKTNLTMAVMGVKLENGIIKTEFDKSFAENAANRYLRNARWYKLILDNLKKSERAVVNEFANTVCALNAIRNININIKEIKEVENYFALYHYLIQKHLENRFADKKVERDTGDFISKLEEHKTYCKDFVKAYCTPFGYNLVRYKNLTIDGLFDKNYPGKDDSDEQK
# methodNotes: crRNA (strand 1, pre-loaded); Mg2+; 40 mM Tris-HCl pH 7.5, 150 mM NaCl, 6 mM MgCl2, 1 mM DTT, 0.1% Tween-20, 0.2 mg/ml BSA; 25 C; 10 min per concentration, then washed
# recordedConditions: tags: His6-TwinStrep-SUMO cleaved; N-terminal SNAP kept (SNAP-Surface 488); label: 3' end held by stalled T7 RNA polymerase
pKd: −log10 of the molar value.

{"binder": "target 2 MT 5'PFS UGC 3'PFS ACA (mixed) RNA 1: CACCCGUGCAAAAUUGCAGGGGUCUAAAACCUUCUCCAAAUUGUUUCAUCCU RNA 2: GGGAAUGGAUCCACAUCUACGAAUUCUGCAGGAUGAAACAAUUUGGAGAAGACAAGAUCGGAAGAGCACACGU", "pKd": 7.77}
{"binder": "target 1 insA 3' of 8 (mixed) RNA 1: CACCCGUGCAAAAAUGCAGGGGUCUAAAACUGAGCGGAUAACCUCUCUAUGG RNA 2: GGGAAUGGAUCCACAUCUACGAAUUCGUACCAUAGAGAGGUUAUACCGCUCACCGAGAUCGGAAGAGCACACGU", "pKd": 7.80}
{"binder": "target 2 MT 5'PFS ACC 3'PFS ACA (mixed) RNA 1: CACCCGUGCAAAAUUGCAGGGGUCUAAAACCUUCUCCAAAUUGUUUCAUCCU RNA 2: GGGAAUGGAUCCACAUCUACGAAUUCACCAGGAUGAAACAAUUUGGAGAAGACAAGAUCGGAAGAGCACACGU", "pKd": 8.10}
